system: Plasmodium falciparum; test: Antimalarial activity against Plasmodium falciparum isolates assessed as parasite growth inhibition after 72 hrs by ELISA based histidine-rich protein 2 in vitro drug susceptibility assay; type: functional, organism-based
Examples of molecules with documented log10 IC50 follow.
Would you kindly interpret these values as log10 of IC50 expressed in µM?

Worked examples, 5 molecules total:
MOLECULE: CC[C@H]1OC(=O)[C@H](C)[C@@H](O[C@H]2C[C@@](C)(OC)[C@@H](O)[C@H](C)O2)[C@H](C)[C@@H](O[C@@H]2O[C@H](C)C[C@H](N(C)C)[C@H]2O)[C@](C)(O)C[C@@H](C)CN(C)[C@H](C)[C@@H](O)[C@]1(C)O
log10 IC50: 0.63
--
MOLECULE: OC(c1cc(C(F)(F)F)nc2c(C(F)(F)F)cccc12)C1CCCCN1 (stereo unspecified)
log10 IC50: -1.84
--
MOLECULE: C[C@H]1[C@@H](O)O[C@@H]2O[C@@]3(C)CC[C@H]4[C@H](C)CC[C@@H]1[C@@]24OO3
log10 IC50: -3.11
--
MOLECULE: C[C@H]1c2cccc(O)c2C(=O)C2=C(O)[C@]3(O)C(=O)C(C(N)=O)=C(O)[C@@H](N(C)C)[C@@H]3[C@@H](O)[C@@H]21.O
log10 IC50: 0.63
--
MOLECULE: CN(C)c1cc(NC(=O)CNC(C)(C)C)c(O)c2c1C[C@H]1C[C@H]3[C@H](N(C)C)C(O)=C(C(N)=O)C(=O)[C@@]3(O)C(O)=C1C2=O
log10 IC50: -0.16

Let's switch to this molecule now.
Using the record for C=C[C@H]1CN2CC[C@H]1C[C@H]2[C@H](O)c1ccnc2ccc(OC)cc12 , report its log10 IC50.
-0.97
